- target or test system: T1, hIL2-DM-his (human, UniProt P60568 21-153)
- T1 construct: expressed in ExpiCHO-S cells, nickel-column purified; also called hIL-2 mutein containing two point mutations K64G and N90R (with a his-tag); not shown: his-tag
- T1 sequence (P60568 21-153 K84G/N110R): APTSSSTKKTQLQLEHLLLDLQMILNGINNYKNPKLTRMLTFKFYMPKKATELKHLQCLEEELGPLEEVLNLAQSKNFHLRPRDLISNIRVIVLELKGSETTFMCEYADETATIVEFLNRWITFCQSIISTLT
- procedure details: BLI ForteBio, Ab on Protein A sensor
experimental readout: Binding Response (nm)
Report the figure in nm without appending any unit label.

Some solved cases for reference:
binder: hS4B6-H6K3-hu09 (antibody, V domains shown, H6K3 with light chain D56S) VH: QVQLVQSGAEVKKPGATVKISCKVSGDTITAYYLHWVRQAPGQGLEWIGRIDPEDDSTKYAENFKNRVTITADTSTNTAYMELSSLRSEDTAVYYCTTVTFYYSRELRWFAYWGQGTLVTVSS VL: DIVLTQSPATLSLSPGERATLSCQASQDIGNYLSWYQQKPGQAPRLLIYSATSLASGIPARFSGSRSGTDYTLTISSLEPEDFAVYYCLQHYSTPYTFGQGTKLEIK
experimental readout: Binding Response (nm)
unit symbol: nm
value reported: 0.18
//
binder: hS4B6-H6K3-hu04 (antibody, V domains shown, H6K3 with heavy chain L34M) VH: QVQLVQSGAEVKKPGATVKISCKVSGDTITAYYMHWVRQAPGQGLEWIGRIDPEDDSTKYAENFKNRVTITADTSTNTAYMELSSLRSEDTAVYYCTTVTFYYSRELRWFAYWGQGTLVTVSS VL: DIVLTQSPATLSLSPGERATLSCQASQDIGNYLSWYQQKPGQAPRLLIYSATSLADGIPARFSGSRSGTDYTLTISSLEPEDFAVYYCLQHYSTPYTFGQGTKLEIK
experimental readout: Binding Response (nm)
unit symbol: nm
value reported: 0.143

Query string: Recorded Binding Response (nm) of hS4B6-H6K3-hu07 (antibody, V domains shown, H6K3 with heavy chain N65G) VH: QVQLVQSGAEVKKPGATVKISCKVSGDTITAYYLHWVRQAPGQGLEWIGRIDPEDDSTKYAENFKGRVTITADTSTNTAYMELSSLRSEDTAVYYCTTVTFYYSRELRWFAYWGQGTLVTVSS VL: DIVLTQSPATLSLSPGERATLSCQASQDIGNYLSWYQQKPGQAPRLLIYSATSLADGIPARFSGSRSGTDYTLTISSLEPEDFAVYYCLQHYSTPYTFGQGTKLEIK , please.
Result string: 0.13
